Data origin, for the record: ChEMBL document CHEMBL1149267

# inhibition values compiled below
- system name: UniProtKB A3EZJ3
- Sequence (A3EZJ3 as listed by the source): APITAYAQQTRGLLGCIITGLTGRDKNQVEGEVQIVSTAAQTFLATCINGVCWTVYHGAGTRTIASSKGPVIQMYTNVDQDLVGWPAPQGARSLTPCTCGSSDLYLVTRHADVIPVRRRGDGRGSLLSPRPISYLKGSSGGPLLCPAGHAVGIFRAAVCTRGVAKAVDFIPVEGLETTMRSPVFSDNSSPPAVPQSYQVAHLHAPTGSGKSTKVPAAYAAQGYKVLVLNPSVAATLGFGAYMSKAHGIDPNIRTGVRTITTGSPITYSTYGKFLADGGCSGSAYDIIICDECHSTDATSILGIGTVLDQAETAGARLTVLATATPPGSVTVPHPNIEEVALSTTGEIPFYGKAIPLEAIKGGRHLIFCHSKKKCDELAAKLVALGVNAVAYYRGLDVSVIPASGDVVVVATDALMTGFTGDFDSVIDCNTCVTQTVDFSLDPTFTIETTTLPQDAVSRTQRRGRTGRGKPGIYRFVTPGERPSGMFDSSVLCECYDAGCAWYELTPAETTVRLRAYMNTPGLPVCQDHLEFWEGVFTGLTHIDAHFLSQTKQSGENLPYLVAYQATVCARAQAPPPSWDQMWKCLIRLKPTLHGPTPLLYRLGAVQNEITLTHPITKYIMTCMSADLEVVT
- assay protocol: Inhibition of HCV NS3 protease at 100 uM
- test conditions: Hepacivirus hominis

For reference, reported inhibition for CC(C)C[C@H](NC(=O)C1Cc2ccc(OCC(=O)O)cc2N1)C(=O)NC(CC(F)F)C(=O)C(=O)O (single isomer, unassigned; diastereomer 4) stands at < 50%

Looking up CC(C)C[C@H](NC(=O)C1Cc2ccccc2N1)C(=O)NC(CC(F)F)C(=O)C(=O)O (single isomer, unassigned; diastereomer 3) , I see its inhibition listed as < 50%

inhibition reported for this compound CC(C)C[C@H](NC(=O)C1Cc2ccccc2N1)C(=O)NC(CC(F)F)C(=O)C(=O)O (single isomer, unassigned; diastereomer 1) : < 50%
